target: DRB1*0405 (Homo sapiens, UniProt P01903+P01911, A100R/A169T/D86S/F76Y/I96L/K127E/L162R/M171V/N62H/P40V/Q125Y/R42H/S133A/S149N/S66Y/V115G/V209L/W38E); assay: biochemical
quantityName: pIC50
Scale explanation: pIC50 corresponds to minus log10 of a concentration expressed in moles per litre.

Which pIC50 value belongs to "C[C@@H](O)[C@H](NC(=O)[C@H](CO)NC(=O)[C@H](CO)NC(=O)[C@H](Cc1c[nH]cn1)NC(=O)[C@H](CCC(=O)O)NC(=O)[C@H](CCC(=O)O)NC(=O)[C@@H](N)CCCCN)C(=O)N[C@@H](Cc1c[nH]c2ccccc12)C(=O)N[C@@H](Cc1c[nH]cn1)C(=O)N[C@@H](Cc1ccc(O)cc1)C(=O)N[C@@H](CC(=O)O)C(=O)N[C@@H](CC(=O)O)C(=O)N[C@@H](CCC(=O)O)C(=O)N[C@@H](CC(N)=O)C(=O)N1CCC[C@H]1C(=O)N[C@@H](Cc1ccc(O)cc1)C(=O)N[C@@H](CCCCN)C(=O)O" ?
5.06

---

target: DRB1*0401 (Homo sapiens, UniProt P01903+P01911, A100K/A169T/F76Y/I96L/K127E/L162R/M171V/N62H/P40V/Q125Y/R42H/S133A/S149N/S66Y/V115G/V209L/W38E); test: biochemical
The reader will find reported IC50 values listed item by item below.
Reply with just the number (in nM).

Previously resolved entries follow.
# smi, unitOfMeasure, result
measured = [
    ("CC(C)C[C@H](NC(=O)[C@@H](NC(=O)CNC(=O)[C@H](CC(N)=O)NC(=O)[C@H](CO)NC(=O)[C@H](Cc1c[nH]c2ccccc12)NC(=O)[C@H](CC(C)C)NC(=O)[C@@H](NC(=O)[C@H](Cc1c[nH]cn1)NC(=O)[C@H](CO)NC(=O)[C@H](CCCCN)NC(=O)[C@@H]1CCCN1C(=O)[C@@H](N)Cc1c[nH]c2ccccc12)[C@@H](C)O)C(C)C)C(=O)N[C@@H](CCC(=O)O)C(=O)N[C@@H](CO)C(=O)O", "nM", 322),
    ("CC[C@H](C)[C@H](NC(=O)[C@H](CC(=O)O)NC(=O)CNC(=O)[C@@H](NC(=O)[C@@H](NC(=O)[C@@H](NC(=O)[C@@H](NC(=O)[C@H](CC(C)C)NC(=O)[C@@H](N)CCCCN)[C@@H](C)O)C(C)C)C(C)C)C(C)C)C(=O)N[C@H](C(=O)NCC(=O)N[C@H](C(=O)N[C@@H](CC(C)C)C(=O)N[C@@H](CCC(=O)O)C(=O)N[C@@H](CCC(N)=O)C(=O)O)C(C)C)[C@@H](C)CC", "nM", 88),
]

Now consider a different compound.
Quick one: IC50 of "CC[C@H](C)[C@H](NC(=O)[C@@H](N)CCCCN)C(=O)N1CCC[C@H]1C(=O)NCC(=O)NCC(=O)N[C@@H](C)C(=O)N[C@@H](CCSC)C(=O)N[C@@H](Cc1ccc(O)cc1)C(=O)N[C@@H](C)C(=O)N[C@@H](CC(=O)O)C(=O)N[C@@H](CC(=O)O)C(=O)N[C@H](C(=O)N[C@@H](C)C(=O)NCC(=O)N[C@@H](Cc1c[nH]c2ccccc12)C(=O)N[C@@H](CC(=O)O)C(=O)N[C@H](C(=O)O)[C@@H](C)O)[C@@H](C)O" ?
7.3

---

// values below are reported IC50
biological target: DRB1*0701 (Homo sapiens, UniProt P01903+P01911, A100R/A102G/A103Q/D57E/D86V/E43K/F76Y/K127E/L162R/M171V/P40G/Q125H/Q99D/R33Q/R42Y/R54Q/S133A/S66F/T210M/V115G/Y107V/Y59L/Y89S); experiment: biochemical

Example compounds with recorded IC50:
# smi, quantityName, result
rows = [
    ("CC(C)C[C@H](NC(=O)[C@H](C)NC(=O)[C@H](CC(C)C)NC(=O)[C@@H]1CCCN1)C(=O)N[C@@H](CCCCN)C(=O)N[C@@H](CCC(=O)O)C(=O)N[C@@H](Cc1ccccc1)C(=O)N[C@@H](CCCCN)C(=O)N[C@@H](CC(=O)O)C(=O)N[C@@H](Cc1ccccc1)C(=O)N[C@@H](C)C(=O)N[C@@H](C)C(=O)NCC(=O)N[C@@H](CCCNC(=N)N)C(=O)N[C@@H](CCCCN)C(=O)O", "IC50", "3.45 µM"),
    ("CC(C)C[C@H](NC(=O)[C@@H](NC(=O)CNC(=O)[C@H](CC(N)=O)NC(=O)[C@H](CO)NC(=O)[C@H](Cc1c[nH]c2ccccc12)NC(=O)[C@H](CC(C)C)NC(=O)[C@@H](NC(=O)[C@H](Cc1c[nH]cn1)NC(=O)[C@H](CO)NC(=O)[C@H](CCCCN)NC(=O)[C@@H]1CCCN1C(=O)[C@@H](N)Cc1c[nH]c2ccccc12)[C@@H](C)O)C(C)C)C(=O)N[C@@H](CCC(=O)O)C(=O)N[C@@H](CO)C(=O)O", "IC50", "5.69 µM"),
]

Suppose we examine the compound "CC[C@H](C)[C@H](NC(=O)[C@H](CC(C)C)NC(=O)[C@H](CCCNC(=N)N)NC(=O)CNC(=O)[C@@H](N)CC(N)=O)C(=O)N[C@H](C(=O)N[C@@H](C)C(=O)N[C@@H](CC(N)=O)C(=O)N1CCC[C@H]1C(=O)N[C@H](C(=O)N[C@H](C(=O)N[C@H](C(=O)N[C@@H](CCCCN)C(=O)N[C@@H](CCCCN)C(=O)N[C@@H](CCC(=O)O)C(=O)O)[C@@H](C)O)C(C)C)C(C)C)[C@@H](C)O" ; what IC50 value has been reported?
0.068 µM

---

target: DRB1*0405 (Homo sapiens, UniProt P01903+P01911, A100R/A169T/D86S/F76Y/I96L/K127E/L162R/M171V/N62H/P40V/Q125Y/R42H/S133A/S149N/S66Y/V115G/V209L/W38E); test: biochemical
quantityName: IC50 (nM)
Entry rule: numbers only, all in nM.

The cases that follow already have their IC50 on record.
# smi, quantityName, result
records = [
    ("CC[C@H](C)[C@H](NC(=O)[C@H](CC(=O)O)NC(=O)CNC(=O)[C@@H](NC(=O)[C@@H](NC(=O)[C@@H](NC(=O)[C@@H](NC(=O)[C@H](CC(C)C)NC(=O)[C@@H](N)CCCCN)[C@@H](C)O)C(C)C)C(C)C)C(C)C)C(=O)N[C@H](C(=O)NCC(=O)N[C@H](C(=O)N[C@@H](CC(C)C)C(=O)N[C@@H](CCC(=O)O)C(=O)N[C@@H](CCC(N)=O)C(=O)O)C(C)C)[C@@H](C)CC", "IC50", 1400),
    ("CC[C@H](C)[C@H](NC(=O)[C@H](C)NC(=O)[C@H](CC(N)=O)NC(=O)[C@H](CO)NC(=O)[C@H](C)NC(=O)[C@H](CC(C)C)NC(=O)[C@H](CCCNC(=N)N)NC(=O)[C@H](CC(C)C)NC(=O)[C@H](CC(=O)O)NC(=O)[C@H](CCCNC(=N)N)NC(=O)[C@H](CCCNC(=N)N)NC(=O)[C@H](Cc1c[nH]cn1)NC(=O)[C@H](Cc1ccccc1)NC(=O)[C@H](Cc1ccc(O)cc1)NC(=O)[C@@H](N)CCSC)C(=O)O", "IC50", 18),
]

Value lookup for IC50; key = "CC[C@H](C)[C@H](NC(=O)[C@H](C)NC(=O)[C@H](C)NC(=O)[C@H](C)NC(=O)[C@@H](N)CCC(=O)O)C(=O)N[C@@H](Cc1ccccc1)C(=O)N[C@@H](CCSC)C(=O)N[C@H](C(=O)N[C@@H](C)C(=O)N[C@H](C(=O)N1CCC[C@H]1C(=O)N1CCC[C@H]1C(=O)NCC(=O)N[C@H](C(=O)N[C@@H](C)C(=O)O)[C@@H](C)O)[C@@H](C)O)[C@@H](C)O"
32

---

target: DRB1*0101 (Homo sapiens, UniProt P01903+P01911, A100R/D57E/F55L/F60I/F76Y/I96L/L162R/M171V/P40L/Q125E/R42F/V115G/Y59C); experiment: biochemical
Reported IC50 by item:

# molecule, result
data = [
    ("CC[C@H](C)[C@H](NC(=O)[C@H](Cc1ccc(O)cc1)NC(=O)CNC(=O)[C@H](CC(C)C)NC(=O)[C@H](CCCCN)NC(=O)[C@H](Cc1c[nH]cn1)NC(=O)[C@H](CC(C)C)NC(=O)CNC(=O)[C@H](CCC(=O)O)NC(=O)CNC(=O)[C@H](CCC(=O)O)NC(=O)[C@@H](NC(=O)CNC(=O)[C@H](CO)NC(=O)[C@H](Cc1ccc(O)cc1)NC(=O)[C@H](CO)NC(=O)[C@@H](N)CC(N)=O)C(C)C)C(=O)O [NS5 501-517]", "7 nM"),
    ("CC[C@H](C)[C@H](NC(=O)[C@H](C)N)C(=O)N[C@@H](CCC(N)=O)C(=O)N[C@@H](CCC(N)=O)C(=O)N[C@H](C(=O)N[C@@H](CCCNC(=N)N)C(=O)N[C@@H](CO)C(=O)N[C@@H](CC(C)C)C(=O)N[C@H](C(=O)NCC(=O)N[C@@H](CC(N)=O)C(=O)N[C@@H](CCC(=O)O)C(=O)N[C@@H](CCC(=O)O)C(=O)N[C@@H](Cc1ccccc1)C(=O)N[C@@H](CC(C)C)C(=O)N[C@@H](CC(=O)O)C(=O)N[C@@H](Cc1ccc(O)cc1)C(=O)O)[C@@H](C)CC)C(C)C [NS5 866-882]", "4.3 nM"),
]

Moving on to another molecule below.
# input molecule: CC(C)C[C@H](NC(=O)[C@H](CCC(=O)O)NC(=O)[C@H](CCCCN)NC(=O)[C@@H](N)CCCNC(=N)N)C(=O)N[C@@H](CC(C)C)C(=O)N[C@H](C(=O)N[C@H](C(=O)N[C@@H](Cc1ccccc1)C(=O)N[C@@H](CCCCN)C(=O)N[C@@H](CC(N)=O)C(=O)N[C@@H](C)C(=O)N[C@@H](Cc1c[nH]cn1)C(=O)N[C@@H](C)C(=O)N[C@@H](CCCCN)C(=O)N[C@@H](CCCCN)C(=O)O)[C@@H](C)O)C(C)C [Envelope 231-245] ; wanted: its IC50
5.1 nM
